# MEASURED TARGET: human P2X3 receptor (Homo sapiens (Human), UniProt P56373)
# Sequence (P56373 whole entry): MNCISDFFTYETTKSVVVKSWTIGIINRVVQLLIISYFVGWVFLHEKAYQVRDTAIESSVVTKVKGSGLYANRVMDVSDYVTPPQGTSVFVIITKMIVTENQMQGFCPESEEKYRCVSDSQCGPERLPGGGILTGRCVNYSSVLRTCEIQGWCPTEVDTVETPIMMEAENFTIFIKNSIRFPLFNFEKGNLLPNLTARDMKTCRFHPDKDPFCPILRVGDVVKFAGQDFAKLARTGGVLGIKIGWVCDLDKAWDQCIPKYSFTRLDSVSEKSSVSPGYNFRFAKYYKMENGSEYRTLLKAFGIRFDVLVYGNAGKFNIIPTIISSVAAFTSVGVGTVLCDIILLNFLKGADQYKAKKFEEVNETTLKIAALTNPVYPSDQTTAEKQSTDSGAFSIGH
# EXPERIMENTAL DETAILS: Intracellular calcium measurement (FLIPR, Fluo-4) of antagonist activity at human P2X3 receptors
# Format: cell-based
# CONDITION NOTES: human P2X3, FLIPR calcium assay, agonist α,β-Me-ATP; read-out: hP2X3 IC50
MEASUREMENT TYPE: IC50 (nM)

I. Cc1ccc(CNC(=O)c2cc(OC[C@H]3CCOC3)cc(-c3ncc(C)s3)c2)nn1
II. Cc1ccc([C@@H](C)NC(=O)c2cc(O[C@H]3CCOC3)cc(-c3ncc(C(C)C)s3)c2)nn1
Between the two listed entries I and II , which has its IC50 at the higher number? Answer with the label corresponding to your selection.
II
(II: 254 nM, I: 35 nM)

A. C[C@@H](NC(=O)c1cc(OC[C@H]2CCOC2)cc(-c2ncc(C3CCC3)s2)c1)c1cnc(C(F)(F)F)nc1
B. Cc1cnc(-c2cc(OCC3CCOCC3)cc(C(=O)NC(C)c3ncc(Cl)cc3F)c2)s1 (centres unmarked)
C. Cc1cnc(CNC(=O)c2cc(OCC3CC3)cc(-c3ncc(C)s3)c2)cn1
# desc sort on IC50 across 3 molecules Answer format: the labels, ordered as requested.
A, C, B
(A: 46 nM, C: 26 nM, B: 2 nM)

====

# MEASURED TARGET: human P2X2/3 receptor (Homo sapiens (Human), UniProt P56373+Q9UBL9)
# Sequence (P56373 whole entry): as above
# Sequence (Q9UBL9 whole entry): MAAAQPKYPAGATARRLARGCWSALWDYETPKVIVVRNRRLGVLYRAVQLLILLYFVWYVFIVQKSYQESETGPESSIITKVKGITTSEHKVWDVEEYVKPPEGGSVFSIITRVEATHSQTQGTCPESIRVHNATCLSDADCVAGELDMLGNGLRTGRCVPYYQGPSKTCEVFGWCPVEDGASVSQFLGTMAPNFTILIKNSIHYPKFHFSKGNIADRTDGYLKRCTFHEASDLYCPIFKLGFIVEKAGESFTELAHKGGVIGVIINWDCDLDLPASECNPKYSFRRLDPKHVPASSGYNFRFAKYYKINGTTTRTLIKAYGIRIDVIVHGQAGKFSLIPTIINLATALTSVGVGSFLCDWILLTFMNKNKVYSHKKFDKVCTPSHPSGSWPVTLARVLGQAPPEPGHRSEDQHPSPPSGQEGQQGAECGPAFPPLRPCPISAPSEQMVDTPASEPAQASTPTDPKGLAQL
# EXPERIMENTAL DETAILS: Intracellular calcium measurement (FLIPR, Fluo-4) of antagonist activity at human P2X2/3 receptors
# Format: cell-based
# CONDITION NOTES: human P2X2/3, FLIPR calcium assay, agonist α,β-Me-ATP; read-out: hP2X2/3 IC50
MEASUREMENT TYPE: IC50 (nM)

Worked cases, IC50 given:
>>> reported_measurement("Cc1ccc(Oc2cc(C(=O)N[C@H](C)c3cnc(C)cn3)cc(-c3ncc(C)s3)c2)cn1 [Example 131]")
730
>>> reported_measurement("Cc1cnc([C@@H](C)NC(=O)c2cc(OC[C@@H]3CCOC3)cc(-c3ncc(C)s3)c2)cn1 [Example 74]")
1110
>>> reported_measurement("Cc1cnc(-c2cc(O[C@@H]3CC[C@H]4[C@H]3OCCN4C)cc(C(=O)N[C@H](C)c3cnc(C(F)(F)F)nc3)c2)s1 [Example 218]")
281
>>> reported_measurement("Cc1cnc([C@@H](C)NC(=O)c2cc(OC3CCN(CC(F)(F)F)CC3)cc(-c3ncc(C)s3)c2)cn1 [Example 313]")
200
>>> reported_measurement("Cc1ccc(CNC(=O)c2cc(OC3CCOCC3)cc(-c3ncc(C)s3)c2)nn1 [Example 82]")
380

P. Cc1cnc(-c2cc(OC3CCN(C(C)C)CC3)cc(C(=O)N[C@H](C)c3cnc(C(F)(F)F)nc3)c2)s1 [Example 140]
Q. COC(C)(C)COc1cc(C(=O)N[C@H](C)c2ccc(Cl)cn2)cc(-c2ncc(Cl)s2)c1 [Example 115]
R. Cc1ccc([C@@H](C)NC(=O)c2cc(OCC3CC3)cc(-c3ncc(C)s3)c2)nn1 [Example 8]
S. Cc1ccc([C@@H](C)NC(=O)c2cc(O[C@H]3CCOC3)cc(-c3ncc(C(C)C)s3)c2)nn1 [Example 255]
# desc sort on IC50 across 4 molecules Answer format: the labels, ordered as requested.
P, S, Q, R

A. Cc1cnc(-c2cc(OCC3(C)COC3)cc(C(=O)N[C@H](C)c3cnc(C(F)(F)F)nc3)c2)s1 [Example 327]
B. Cc1cnc(-c2cc(OC[C@@H]3CN(C)C(=O)CO3)cc(C(=O)N[C@H](C)c3cnc(C(F)(F)F)nc3)c2)s1 [Example 401]
Between the two listed entries A and B , which has its IC50 at the higher number? Answer with the label corresponding to your selection.
B
(B: 1470 nM, A: 239 nM)

A. Cc1cnc(-c2cc(OC3CCS(=O)(=O)CC3)cc(C(=O)N[C@H](C)c3cnc(C(F)(F)F)nc3)c2)s1 [Example 232]
B. COC(=O)N1CC2COCC(C1)C2Oc1cc(C(=O)N[C@H](C)c2cnc(C(F)(F)F)nc2)cc(-c2ncc(C)s2)c1 (stereo partly drawn) [Example 345]
C. Cc1cnc([C@@H](C)NC(=O)c2cc(OC3CCN(CC(F)F)CC3)cc(-c3ncc(C)s3)c2)cn1 [Example 306]
Rank items: key IC50, increasing. Answer format: the labels, ordered as requested.
B, C, A
(B: 99 nM, C: 464 nM, A: 759 nM)

====

# MEASURED TARGET: human P2X2/3 receptor (Homo sapiens (Human), UniProt P56373+Q9UBL9)
# EXPERIMENTAL DETAILS: Intracellular calcium measurement (FLIPR, Fluo-4) of antagonist activity at human P2X2/3 receptors
# Format: cell-based
# CONDITION NOTES: human P2X2/3, FLIPR calcium assay, agonist α,β-Me-ATP; read-out: hP2X2/3 IC50
# Description: Intracellular Calcium Measurement to Assess Antagonist Activity at Human P2X3 and Human P2X2/3 Receptors A fluorescent imaging plate reader (FLEX/FLIPR station; Molecular Devices) was used to monitor intracellular calcium levels using the calcium-chelating dye Fluo-4 (Molecular Probes). […] The fluorescence was measured for an interval of 90 sec at 2 sec intervals and analyzed based on the increase in peak relative fluorescence units (RFU) compared to the basal fluorescence. […]
MEASUREMENT TYPE: IC50 (nM)

Worked cases, IC50 given:
>>> reported_measurement("Cc1ccc([C@@H](C)NC(=O)c2cc(O[C@@H]3CCOC3)cc(-c3ncc(Cl)s3)c2)nn1 [Example 317]")
952
>>> reported_measurement("Cc1cnc(-c2cc(OCC3(F)CN(C)C3)cc(C(=O)N[C@H](C)c3cnc(C(F)(F)F)nc3)c2)s1 [Example 371]")
1170

P. Cc1cnc(-c2cc(OC3CCOCC3)cc(C(=O)N[C@H](C)c3ccc(C(F)(F)F)nn3)c2)s1 [Example 89]
Q. CCc1cnc(-c2cc(OC3CCOCC3)cc(C(=O)N[C@H](C)c3cnc(C(F)(F)F)nc3)c2)s1 [Example 129]
Form: Entry with minimum IC50 (choose one): P / Q Answer with the label corresponding to your selection.
Q

====

# Tested on: rat hepatocytes
# EXPERIMENTAL DETAILS: In vitro metabolic stability in rat hepatocytes
# Type: in vitro ADME, Han Wistar rats
# CONDITION NOTES: 1 μM, 1.0×10^6 cells/mL, maximal oral bioavailability calculated from half-life
MEASUREMENT TYPE: Rat hepatocyte Fmax (%)

>>> reported_measurement("Cc1cnc(-c2cc(OC(C)C(C)O)cc(C(=O)N[C@H](C)c3cnc(C(F)(F)F)nc3)c2)s1 (single isomer, unassigned) [Example 163]")
53
>>> reported_measurement("Cc1cnc(-c2cc(OC(C)C(C)O)cc(C(=O)N[C@H](C)c3cnc(C(F)(F)F)nc3)c2)s1 (single isomer, unassigned) [Example 340]")
64
>>> reported_measurement("Cc1cnc(-c2cc(OC(C)C(C)O)cc(C(=O)N[C@H](C)c3ccc(C(F)(F)F)nn3)c2)s1 (single isomer, unassigned)")
43
>>> reported_measurement("Cc1cnc(-c2cc(OC(C)C(C)O)cc(C(=O)N[C@H](C)c3cnc(C(F)(F)F)nc3)c2)s1 (single isomer, unassigned) [Example 339]")
52
>>> reported_measurement("CCc1cnc(-c2cc(OC[C@H]3CN(C)CCO3)cc(C(=O)N[C@H](C)c3ccc(C(F)(F)F)nn3)c2)s1")
51
>>> reported_measurement("Cc1cnc(-c2cc(O[C@H]3CCOC3)cc(C(=O)N[C@H](C)c3cnc(C(F)(F)F)nc3)c2)s1")
56
>>> reported_measurement("Cc1cnc(-c2cc(O[C@@H]3CCOC3)cc(C(=O)N[C@H](C)c3cnc(C(F)(F)F)nc3)c2)s1")
52

====

# MEASURED TARGET: UniProtKB P56373
# EXPERIMENTAL DETAILS: Intracellular calcium measurement (FLIPR, Fluo-4) of antagonist activity at human P2X3 receptors
# Assay type: cell-based
# CONDITION NOTES: human P2X3, FLIPR calcium assay, agonist α,β-Me-ATP; read-out: hP2X3 IC50
MEASUREMENT TYPE: IC50 (µM)

>>> reported_measurement("Cc1cnc(CNC(=O)c2cc(OCC3CCOCC3)cc(-c3ncc(C)s3)c2)cn1")
0.015

A. Cc1cnc(-c2cc(OC[C@H]3CN(C(C)C)CCO3)cc(C(=O)N[C@H](C)c3cnc(C(F)(F)F)nc3)c2)s1
B. Cc1cnc(-c2cc(OC[C@@H]3CN(C)CCO3)cc(C(=O)NCc3cnc(C(F)(F)F)nc3)c2)s1
C. Cc1cnc([C@@H](C)NC(=O)c2cc(OCC3CC3)cc(-c3ncc(C)s3)c2)cn1
# desc sort on IC50 across 3 compounds Answer format: the labels, ordered as requested.
B, A, C
(B: 0.084 µM, A: 0.016 µM, C: 0.009 µM)
